- System: canarygrass (Phalaris minor)
- Test Name: Test A pre-/postemergence plant response
- Type: in vivo
- Run Conditions: Postemergence, 31 g ai/ha; 0 to 100 scale (0 no effect, 100 complete control)
Result Type: Plant response rating, Canarygrass
Reply briefly: the number, and no unit.

Reference set (2 entries):
Mol Smiles: CCc1cc(-c2ccc(Br)cc2)nn1-c1c(O)c(OC)nn(C)c1=O
Quantitative Readout: 100

Mol Smiles: CCc1cc(-c2ccc(C(F)(F)F)cc2)nn1-c1c(OC(=O)C2CCCCC2)cnn(C)c1=O
Quantitative Readout: 90

Incoming: Indicate its recorded Plant response rating, Canarygrass; the compound in question is "CCc1cc(-c2ccc(C(F)(F)F)cc2)nn1-c1c(OC(=O)c2ccc(Cl)nc2)cnn(C)c1=O"
Outgoing: 70

Incoming: Specify measured Plant response rating, Canarygrass for "Cc1c(Br)c(-c2ccc(Br)cc2)nn1-c1c(O)cnn(C)c1=O" .
Outgoing: 0
